The origin of these recorded values is PubChem BioAssay (NCI).

- Protocol details: NCI Yeast Anticancer Drug Screen. Data for the mlh1 rad18 strain (AID 175)
- Condition context: S. cerevisiae mlh1 rad18 strain growth inhibition; at 50.0 µM (retest, dose inferred, filed as 5.0); stronger effect = higher value
This is part of a sample that, as a whole, favours compounds with a hit. Of some 79,000 tested, about 15% had one in any assay. Activity calls are given as the source filed them. Rule as the data show it: active = growth inhibition above about 70%; inactive = the rest.

{"columns": ["Compound", "growth inhibition"],
 "data": [
  ["O=C(c1c(F)c(F)c(F)c(F)c1F)n1c(=S)n(C(=O)c2c(F)c(F)c(F)c(F)c2F)c2ccccc21", "95% (active)"],
  ["NC(=S)c1cccc(C2Nc3ccccc3O2)c1 (stereo not drawn)", "61% (inactive)"],
  ["Cc1cc2nc(CC(=O)c3ccc4ccccc4c3)c(=O)[nH]c2cc1C", "-28% (inactive)"],
  ["O=C1OC(c2cccc(Cl)c2)=N/C1=C\\C=C/c1ccccc1", "-39% (inactive)"],
  ["c1ccc(N=c2sc3ccccc3sc2=Nc2ccccc2)cc1", "56% (inactive)"],
  ["O=C(N=Nc1c(O)[nH]c2ccccc12)C(O)(c1ccccc1)c1ccccc1", "38% (inactive)"],
  ["OC1CN(C2CCCCC2)CC1C1(O)CCN(C2CCCCC2)C1 (stereo not drawn)", "10% (inactive)"],
  ["CCc1c(C)[nH]c2c([N+](=O)[O-])cccc12", "27% (inactive)"],
  ["O/N=C\\c1ccc(-c2ccccc2)cc1", "91% (active)"],
  ["CC1(C)COC(C)(C(=O)O)OC1", "-1% (inactive)"],
  ["COC(=O)C(=O)C(=O)C1CCCC(c2ccccc2)C1=O (stereo not drawn)", "97% (active)"],
  ["Nc1ccccc1N=Nc1c(S(=O)(=O)O)cc2cc(S(=O)(=O)O)cc(O)c2c1O", "7% (inactive)"],
  ["CCCCCCCCCCCCNC(=O)OCC(C)O (stereo not drawn) (tested in a mixture with another compound)", "91% (active)"],
  ["O=c1oc2ccccc2c(O)c1/C=N/C(=S)NCCc1ccccc1", "93% (active)"],
  ["Cc1ccc(Nc2nc3c(s2)C(=O)c2ccccc2C3=O)c(C)c1", "98% (active)"],
  ["CN=C(N)N/N=C(\\C)c1ccc2c(c1)Cc1cc(Cl)ccc1-2", "97% (active)"],
  ["COc1ccc2nc3cc(Cl)ccc3c(NCCCN(Cc3cc(OC)c(OC)c(OC)c3)Cc3cc(OC)c(OC)c(OC)c3)c2c1", "80% (active)"],
  ["O=C(O)c1nnsc1-c1ccc(-c2snnc2C(=O)O)cc1", "9% (inactive)"],
  ["CCCCCCC(=O)OCCN(CCOC(=O)CCCCCC)C(=O)C(C)OC(=O)CCCCCC (stereo not drawn)", "58% (inactive)"],
  ["CCOC(=O)/C(=N/NS(=O)(=O)c1c(C)cc(C)cc1C)c1ccco1", "34% (inactive)"],
  ["Cc1ccc2[nH]c3cc4ccncc4cc3c2c1", "95% (active)"],
  ["Cc1nn(C(=O)c2ccccc2O)c2c1C(c1ccco1)SC(N)=N2 (stereo not drawn)", "86% (active)"],
  ["C/C(=N\\Oc1ncc([N+](=O)[O-])c(O/N=C(\\C)c2ccccc2)n1)c1ccccc1", "-11% (inactive)"]
]}

###

- Protocol details: NCI Yeast Anticancer Drug Screen. Data for the mlh1 rad18 strain (AID 175)
- Condition context: S. cerevisiae mlh1 rad18 strain growth inhibition; at 50.0 µM; stronger effect = higher value
About 79,000 compounds went through this panel and 15% of them were active in at least one assay; those are over-represented in the sample as a whole. The source made the active and inactive calls. No stated cut-off is given here; in the data, active means growth inhibition above about 70%; inactive means the rest.
List of growth inhibition values.

{"columns": ["Compound", "growth inhibition"],
 "data": [
  ["O=C(/C=C(/Nc1ccccc1)C(=O)c1ccccc1)c1ccccc1", "37.7% (inactive)"],
  ["O=C(O)c1ccccc1/C=N/O", "6.7% (inactive)"],
  ["CN(C)c1ccc(C=Nc2cnc3ccccc3c2)cc1", "-6.35% (inactive)"],
  ["c1cc2c3c(c1)[I+]c1cccc(c1-3)[I+]2", "55.9% (inactive)"],
  ["CC1(C)CC[C@]2(C(=O)O)[C@H](O)C[C@]3(C)C(=CC[C@@H]4[C@@]5(C)CC[C@H](OC6OCC(O)C(O)C6OC6OCC(O)C(O)C6OC6OCC(O)C(O)C6O)C(C)(C)[C@@H]5CC[C@]43C)[C@@H]2C1 (some centres not stated)", "52% (inactive)"],
  ["Oc1c(Cl)c(Cl)c2ncccc2c1Cl", "45.5% (inactive)"],
  ["CCCCCCCCCCN1Cc2ccccc2C1", "99.3% (active)"],
  ["O=C1CC(c2ccccc2)c2c(ccc3ccccc23)O1 (configuration not stated)", "72.8% (active)"],
  ["Cc1nc(C(N)=S)sc1C(=O)C/C(=N/N)C(=O)Nc1cccc(Cl)c1C", "37.1% (inactive)"],
  ["FC(F)(F)c1[nH]nc(-c2ccc(Cl)cc2)c1N=NN1CCOCC1", "93.6% (active)"],
  ["CN1C(=O)c2ccccc2C1(c1ccccc1)c1ccccc1", "56.9% (inactive)"],
  ["CCC(=O)OC1CCC(C2CCCCC2)CC1 (configuration not stated)", "36.8% (inactive)"],
  ["CCCNC(=O)C(=O)NNc1ccccc1", "90.1% (active)"],
  ["CCCCCCN(S(=O)(=O)c1ccc([N+](=O)[O-])cc1)S(=O)(=O)c1ccc([N+](=O)[O-])cc1", "73.8% (active)"],
  ["O=C1NC(=O)C(c2ccccc2)(c2ccccc2)C2CC3c4[nH]c5ccccc5c4CCN3CC12 (configuration not stated)", "73.8% (active)"],
  ["CCOC(=O)C(C(=O)OCC)C(=O)c1ccc2c(c1)OCO2", "60.4% (inactive)"],
  ["O=C(O)c1cccc(N=Nc2c(S(=O)(=O)O)ccc3c2C(=O)c2ccccc2C3=O)c1O", "85.6% (active)"],
  ["COc1cc2c(c(O)c1C)C(=O)C(Cl)=CC2=O", "99.2% (active)"],
  ["c1ccc(Oc2ccc(Nc3c4ccccc4nc4ccccc34)cc2)cc1", "27.1% (inactive)"],
  ["CCCCCCCCCCCC(=O)OCC(C)C", "15.5% (inactive)"],
  ["O=[N+]([O-])c1ccc(S(=O)(=O)N/N=C/C=C/c2ccccc2)cc1", "75.5% (active)"],
  ["Nc1ccc(-c2ccc(N)cc2S(=O)(=O)O)c(S(=O)(=O)O)c1", "-38.7% (inactive)"]
]}

###

- Protocol details: NCI Yeast Anticancer Drug Screen. Data for the mlh1 rad18 strain (AID 175)
- Condition context: S. cerevisiae mlh1 rad18 strain growth inhibition; at 50.0 µM; stronger effect = higher value
Compounds without any hit were thinned out: in the full panel of roughly 79,000, 15% have a hit.

{"columns": ["Compound", "growth inhibition / %"],
 "data": [
  ["O=C1Nc2ccc([N+](=O)[O-])c3c([N+](=O)[O-])ccc1c23", 90.7],
  ["Nc1ccc2nnnn2c1", 70.5],
  ["COc1ccc(Cc2cncc3c(O)c(OC)ccc23)cc1O", 89.5],
  ["N=Nc1c(OC(=O)Nc2cccc(Cl)c2)[nH]c2ccccc12", 99.1],
  ["Cc1ccc(C2CC(c3cccc([N+](=O)[O-])c3)=Nc3ccccc3S2)cc1 (configuration not stated)", 60.8],
  ["Cc1ccc(O)c(Cc2ccc(Cl)cc2)c1", 99.6],
  ["COC1=Nc2ccccc2S(=O)(=O)C=C1", 98.3]
]}

###

- Protocol details: NCI Yeast Anticancer Drug Screen. Data for the mec2-1 strain (AID 157)
- Condition context: S. cerevisiae mec2-1 strain, at 50.0 µM
This is part of a sample that, as a whole, favours compounds with a hit. Of some 79,000 tested, about 15% had one in any assay. The source made the active and inactive calls. Cut-off read from the data, not from the text of the source: active = growth inhibition above about 70%; inactive = the rest.
Classes used: active, inactive

{"columns": ["Molecule", "Assigned class"],
 "data": [
  ["CCOC(=O)c1cnccc1CC1(C#N)c2ccccc2C=CN1C(=O)c1ccccc1 (stereo not given)", "active"],
  ["CSc1nc(COC(=O)NC(C)C)c(COC(=O)NC(C)C)n1-c1ccccc1", "inactive"],
  ["Nc1nc(Cl)cc(NCC2(CO)CC(CCCc3ccccc3)C2)n1 (stereo not given)", "inactive"],
  ["CCOC(=O)c1ccc2c3c([nH]c2c1C)-c1ccccc1CC3", "active"],
  ["O=C(O)C1C(C(=O)Nc2ccc3c(c2)Cc2ccccc2-3)C2(Cl)C(Cl)=C(Cl)C1(Cl)C2(Cl)Cl (stereo not given)", "active"],
  ["NC(=S)N/N=C/c1cn(CCCl)c2ccccc12", "inactive"],
  ["O=C(CBr)C1(Br)CCN(Cc2ccccc2)CC1", "active"],
  ["COc1ccc(CN2CCCN(Cc3ccc(OC)cc3OC)C2c2cccc([N+](=O)[O-])c2O)c(OC)c1", "inactive"],
  ["NC(=O)CCSC(=S)N1CCOCC1", "inactive"],
  ["N=Nc1c(OC(=O)Nc2ccccc2)[nH]c2ccccc12", "inactive"],
  ["COC1C(N)C(OC2C(Oc3cccc4c(O)c5c(=O)oc6ccc(C)c7c(=O)oc(c34)c5c67)OC(C)C(O)C2(C)O)OC(C)C1O (stereo not given)", "inactive"],
  ["COC(=O)C1=C(NC(=O)Nc2ccc(Cl)cc2)OC(C)(C)C1c1ccc(Cl)cc1 (stereo not given)", "active"],
  ["CC#CC(=O)Nc1ccccc1CC(c1c[nH]c2ccccc12)c1c[nH]c2ccccc12", "inactive"],
  ["NC(=S)N1N=C2c3ccccc3CC[C@H]2[C@@H]1c1cccs1", "inactive"],
  ["C/C=C/C=N/N(c1nnc(-c2ccccc2)c(-c2ccccc2)n1)S(=O)(=O)c1ccc(C)cc1", "active"],
  ["CC(=O)OCc1c2ccccc2c(C)c2c1cc(F)c1ccccc12", "active"],
  ["N#CC(CC(=O)O)C(c1cccc2ccccc12)c1cccc2ccccc12 (stereo not given)", "active"],
  ["O=c1[nH]c2cc(Cl)ccc2nc1/C=C(\\O)c1ccc(N2CCN(c3ccc(/C(O)=C/c4nc5ccc(Cl)cc5[nH]c4=O)cc3)CC2)cc1", "active"],
  ["O=[N+]([O-])c1ccc(O)c(/C=N\\NC(=S)Nc2ccc3cn[nH]c3c2)c1", "inactive"],
  ["Cc1ccc(S(=O)(=O)CC(=O)CC(=O)C(=O)Nc2cc(C)ccc2C)cc1", "inactive"]
]}
